Test system: TSSM
Assay: TSSM control on field strawberry transplants
Type: in vivo, Tetranychus urticae
Details: rate/acre: abamectin 16 fl. oz.; bifenzate 1 lb + INDUCE; COHERE 16 fl. oz.; spiromesifin 12 fl. oz. + INDUCE; fenpyroximate 32 fl. oz.; hexythiazox 6 oz.
Procedure: The efficacy of five traditional compounds and MBI-203 ingredients were evaluated for TSSM control on field strawberry transplants at the Florida Gulf Coast Research and Education Center. Seedlings were transplanted in the Field (day 0), Each 12.5-ft. plot consisted of 20 plants. Plots were infested four times from day 55 through day 71 with 10 to 20 motile TSSM per plant. […] Motile and egg TSSM were brushed from the leaflets onto rotating sticky discs and counted. […]

{"columns": ["Compound", "Number of motile TSSM/leaflet day 154"],
 "data": [
  ["C[C@@H]1[C@@H](c2ccc(Cl)cc2)SC(=O)N1C(=O)NC1CCCCC1 [Hexythiazox]", 285.5],
  ["Cc1nn(C)c(Oc2ccccc2)c1C=NOCc1ccc(C(=O)OC(C)(C)C)cc1 [Fenpyroximate]", 145.3],
  ["Cc1cc(C)c(C2=C(OC(=O)CC(C)(C)C)C3(CCCC3)OC2=O)c(C)c1 [Spiromesifin]", 6.0],
  ["COc1ccc(-c2ccccc2)cc1NNC(=O)OC(C)C [Bifenzate]", 128.3]
]}

----------
Readings of Number of eggs TSSM/leaflet day 105 for the listed compounds
Test system: TSSM
Assay: TSSM control on field strawberry transplants
Format: in vivo, Tetranychus urticae
Conditions: rate/acre: abamectin 16 fl. oz.; bifenzate 1 lb + INDUCE; COHERE 16 fl. oz.; spiromesifin 12 fl. oz. + INDUCE; fenpyroximate 32 fl. oz.; hexythiazox 6 oz.
Experimental: The efficacy of five traditional compounds and MBI-203 ingredients were evaluated for TSSM control on field strawberry transplants at the Florida Gulf Coast Research and Education Center. Seedlings were transplanted in the Field (day 0), Each 12.5-ft. plot consisted of 20 plants. Plots were infested four times from day 55 through day 71 with 10 to 20 motile TSSM per plant. […] Motile and egg TSSM were brushed from the leaflets onto rotating sticky discs and counted. […]

{"columns": ["Compound", "Number of eggs TSSM/leaflet day 105"],
 "data": [
  ["C[C@@H]1[C@@H](c2ccc(Cl)cc2)SC(=O)N1C(=O)NC1CCCCC1", 15.0],
  ["Cc1cc(C)c(C2=C(OC(=O)CC(C)(C)C)C3(CCCC3)OC2=O)c(C)c1", 7.3],
  ["COc1ccc(-c2ccccc2)cc1NNC(=O)OC(C)C [Bifenzate]", 6.0],
  ["Cc1nn(C)c(Oc2ccccc2)c1C=NOCc1ccc(C(=O)OC(C)(C)C)cc1 [Fenpyroximate]", 12.3]
]}

----------
Test system: TSSM
Experiment: TSSM control on field strawberry transplants
Format: in vivo, Tetranychus urticae
Details: rate/acre: abamectin 16 fl. oz.; bifenzate 1 lb + INDUCE; COHERE 16 fl. oz.; spiromesifin 12 fl. oz. + INDUCE; fenpyroximate 32 fl. oz.; hexythiazox 6 oz.

{"columns": ["Compound", "Experimental system", "Number of motile TSSM/leaflet day 118"],
 "data": [
  ["Cc1cc(C)c(C2=C(OC(=O)CC(C)(C)C)C3(CCCC3)OC2=O)c(C)c1", "TSSM", 0.5],
  ["COc1ccc(-c2ccccc2)cc1NNC(=O)OC(C)C [Bifenzate]", "TSSM", 8.3],
  ["Cc1nn(C)c(Oc2ccccc2)c1C=NOCc1ccc(C(=O)OC(C)(C)C)cc1 [Fenpyroximate]", "TSSM", 2.0],
  ["C[C@@H]1[C@@H](c2ccc(Cl)cc2)SC(=O)N1C(=O)NC1CCCCC1", "TSSM", 13.8]
]}

----------
Test system: TSSM
Experiment: TSSM control on field strawberry transplants
Assay type: in vivo, Tetranychus urticae
Details: rate/acre: abamectin 16 fl. oz.; bifenzate 1 lb + INDUCE; COHERE 16 fl. oz.; spiromesifin 12 fl. oz. + INDUCE; fenpyroximate 32 fl. oz.; hexythiazox 6 oz.

{"columns": ["Molecule", "Experimental system", "Number of motile TSSM/leaflet day 98"],
 "data": [
  ["Cc1cc(C)c(C2=C(OC(=O)CC(C)(C)C)C3(CCCC3)OC2=O)c(C)c1", "TSSM", 2.3],
  ["COc1ccc(-c2ccccc2)cc1NNC(=O)OC(C)C [Bifenzate]", "TSSM", 6.0],
  ["C[C@@H]1[C@@H](c2ccc(Cl)cc2)SC(=O)N1C(=O)NC1CCCCC1", "TSSM", 1.8],
  ["Cc1nn(C)c(Oc2ccccc2)c1C=NOCc1ccc(C(=O)OC(C)(C)C)cc1 [Fenpyroximate]", "TSSM", 3.8]
]}

----------
System: TSSM
Experiment: TSSM control on field strawberry transplants
Assay type: in vivo, Tetranychus urticae
Conditions: rate/acre: abamectin 16 fl. oz.; bifenzate 1 lb + INDUCE; COHERE 16 fl. oz.; spiromesifin 12 fl. oz. + INDUCE; fenpyroximate 32 fl. oz.; hexythiazox 6 oz.
Readings of Number of motile TSSM/leaflet day 125 for the listed compounds
Property: Number of motile TSSM/leaflet day 125

{"columns": ["Compound", "Recorded result"],
 "data": [
  ["COc1ccc(-c2ccccc2)cc1NNC(=O)OC(C)C [Bifenzate]", 20.5],
  ["Cc1cc(C)c(C2=C(OC(=O)CC(C)(C)C)C3(CCCC3)OC2=O)c(C)c1 [Spiromesifin]", 0.8],
  ["C[C@@H]1[C@@H](c2ccc(Cl)cc2)SC(=O)N1C(=O)NC1CCCCC1 [Hexythiazox]", 23.0],
  ["Cc1nn(C)c(Oc2ccccc2)c1C=NOCc1ccc(C(=O)OC(C)(C)C)cc1 [Fenpyroximate]", 7.3]
]}

----------
Tested on: TSSM
Test: TSSM control on field strawberry transplants
Assay type: in vivo, Tetranychus urticae
Settings: rate/acre: abamectin 16 fl. oz.; bifenzate 1 lb + INDUCE; COHERE 16 fl. oz.; spiromesifin 12 fl. oz. + INDUCE; fenpyroximate 32 fl. oz.; hexythiazox 6 oz.
Experimental: The efficacy of five traditional compounds and MBI-203 ingredients were evaluated for TSSM control on field strawberry transplants at the Florida Gulf Coast Research and Education Center. Seedlings were transplanted in the Field (day 0), Each 12.5-ft. plot consisted of 20 plants. Plots were infested four times from day 55 through day 71 with 10 to 20 motile TSSM per plant. […] Motile and egg TSSM were brushed from the leaflets onto rotating sticky discs and counted. […]
Property: Number of eggs TSSM/leaflet day 118

{"columns": ["Compound", "Property", "Recorded result"],
 "data": [
  ["Cc1cc(C)c(C2=C(OC(=O)CC(C)(C)C)C3(CCCC3)OC2=O)c(C)c1", "Number of eggs TSSM/leaflet day 118", 1.5],
  ["Cc1nn(C)c(Oc2ccccc2)c1C=NOCc1ccc(C(=O)OC(C)(C)C)cc1 [Fenpyroximate]", "Number of eggs TSSM/leaflet day 118", 1.0],
  ["C[C@@H]1[C@@H](c2ccc(Cl)cc2)SC(=O)N1C(=O)NC1CCCCC1", "Number of eggs TSSM/leaflet day 118", 22.0],
  ["COc1ccc(-c2ccccc2)cc1NNC(=O)OC(C)C [Bifenzate]", "Number of eggs TSSM/leaflet day 118", 8.3]
]}

----------
Tested on: TSSM
Experiment: TSSM control on field strawberry transplants
Assay type: in vivo, Tetranychus urticae
Conditions: before first spray; rate/acre: abamectin 16 fl. oz.; bifenzate 1 lb + INDUCE; COHERE 16 fl. oz.; spiromesifin 12 fl. oz. + INDUCE; fenpyroximate 32 fl. oz.; hexythiazox 6 oz.
Property: Number of eggs TSSM/leaflet day 90

{"columns": ["Compound", "Property", "Recorded result"],
 "data": [
  ["C[C@@H]1[C@@H](c2ccc(Cl)cc2)SC(=O)N1C(=O)NC1CCCCC1", "Number of eggs TSSM/leaflet day 90", 2.0],
  ["Cc1cc(C)c(C2=C(OC(=O)CC(C)(C)C)C3(CCCC3)OC2=O)c(C)c1", "Number of eggs TSSM/leaflet day 90", 7.3],
  ["Cc1nn(C)c(Oc2ccccc2)c1C=NOCc1ccc(C(=O)OC(C)(C)C)cc1 [Fenpyroximate]", "Number of eggs TSSM/leaflet day 90", 9.3],
  ["COc1ccc(-c2ccccc2)cc1NNC(=O)OC(C)C [Bifenzate]", "Number of eggs TSSM/leaflet day 90", 3.8]
]}
